assayed system: Tyrosine-protein kinase ABL1 (Homo sapiens, UniProt P00519, F317L)
method summary: Binding affinity to human phosphorylated ABL1 F317L mutant (S229 to K512 residues) expressed in mammalian expression system after 60 mins by Kinomescan method

{"columns": ["structure notation", "Kd / nM"],
 "data": [
  ["CN1CCC(Nc2ccc(C(=O)Nc3cc(-c4cc(C#N)cs4)n[nH]3)cc2)CC1", 460]
]}

* * *

assayed system: Macrophage colony-stimulating factor 1 receptor (Homo sapiens)
method summary: Binding affinity to wild-type human partial length autoinhibited CSF1R (Y538 to S939 residues) expressed in mammalian expression system after 60 mins by Kinomescan method
pKd: −log10 of the molar value.
value type: pKd

{"columns": ["structure notation", "value reported"],
 "data": [
  ["CN1CCC(Nc2ccc(C(=O)Nc3cc(-c4cc(C#N)cs4)n[nH]3)cc2)CC1", 7.08]
]}

* * *

assayed system: Tyrosine-protein kinase ABL1 (Homo sapiens, UniProt P00519, Q252H)
method summary: Binding affinity to human phosphorylated ABL1 Q252H mutant expressed in mammalian expression system after 60 mins by Kinomescan method
pKd: −log10 of the molar value.

{"columns": ["structure notation", "pKd"],
 "data": [
  ["CN1CCC(Nc2ccc(C(=O)Nc3cc(-c4cc(C#N)cs4)n[nH]3)cc2)CC1", 6.52]
]}

* * *

assayed system: UniProt:P11362
value type: IC50 (nM)

{"columns": ["structure notation", "value reported"],
 "data": [
  ["CN1CCC(Nc2ccc(C(=O)Nc3cc(-c4cc(C#N)cs4)n[nH]3)cc2)CC1", 962]
]}

* * *

assayed system: Platelet-derived growth factor receptor alpha (Homo sapiens, UniProt P16234)
value type: IC50 (µM)

{"columns": ["structure notation", "value reported"],
 "data": [
  ["CN1CCC(Nc2ccc(C(=O)Nc3cc(-c4cc(C#N)cs4)n[nH]3)cc2)CC1", 3.64]
]}

* * *

method summary: Intrinsic clearance in rat liver microsomes assessed per mg protein at 1 uM after 5 to 60 mins in presence of NADPH by LC-MS/MS analysis
Format: ADME, Microsome
conditions used: read-out: CLH
Below is a list of entries, each paired with its recorded microsomal CLint at 1 µM value.
value type: microsomal CLint at 1 µM (µL/min/mg)

{"columns": ["compound", "value reported"],
 "data": [
  ["Cc1ncc2n1-c1ccc(Cl)cc1C(c1ccccc1F)=NC2 [MIDAZOLAM]", 124],
  ["CN1CCC(Nc2ccc(C(=O)Nc3cc(-c4cc(C#N)cs4)n[nH]3)cc2)CC1", 171]
]}

* * *

assayed system: Tyrosine-protein kinase BTK (Homo sapiens, UniProt Q06187)
Sequence (Q06187 whole entry): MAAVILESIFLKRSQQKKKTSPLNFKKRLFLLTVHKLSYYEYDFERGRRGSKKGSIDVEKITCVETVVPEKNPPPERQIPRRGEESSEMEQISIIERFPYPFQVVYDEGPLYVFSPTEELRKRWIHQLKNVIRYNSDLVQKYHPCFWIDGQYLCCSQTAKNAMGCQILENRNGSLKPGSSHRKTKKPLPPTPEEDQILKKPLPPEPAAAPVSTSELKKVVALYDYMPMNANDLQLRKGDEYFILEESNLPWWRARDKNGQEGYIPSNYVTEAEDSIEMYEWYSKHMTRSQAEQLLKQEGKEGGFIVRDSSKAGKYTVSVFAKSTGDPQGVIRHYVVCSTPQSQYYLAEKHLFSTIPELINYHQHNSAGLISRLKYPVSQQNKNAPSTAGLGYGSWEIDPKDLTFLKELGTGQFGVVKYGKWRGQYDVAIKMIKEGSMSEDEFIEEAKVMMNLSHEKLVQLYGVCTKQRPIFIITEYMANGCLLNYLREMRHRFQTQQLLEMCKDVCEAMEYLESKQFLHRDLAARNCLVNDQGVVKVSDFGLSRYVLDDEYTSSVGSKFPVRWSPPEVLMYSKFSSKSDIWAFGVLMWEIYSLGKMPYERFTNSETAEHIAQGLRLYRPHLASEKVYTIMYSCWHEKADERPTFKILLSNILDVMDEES
method summary: Inhibition of human BTK using KVEKIGEGTYGVVYK as substrate preincubated for 20 mins followed by [gamma-33P]-ATP addition and measured after 120 mins by Hotspot assay
conditions used: read-out: IC50
pIC50: −log10 of the molar value.
value type: pIC50

{"columns": ["structure notation", "value reported"],
 "data": [
  ["CN1CCC(Nc2ccc(C(=O)Nc3cc(-c4cc(C#N)cs4)n[nH]3)cc2)CC1", 5.78]
]}

* * *

assayed system: Tyrosine-protein kinase ABL1 (Homo sapiens, UniProt P00519, F317I)
method summary: Binding affinity to human phosphorylated ABL1 F317I mutant (S229 to K512 residues) expressed in mammalian expression system after 60 mins by Kinomescan method

{"columns": ["structure notation", "Kd"],
 "data": [
  ["CN1CCC(Nc2ccc(C(=O)Nc3cc(-c4cc(C#N)cs4)n[nH]3)cc2)CC1", "> 10 µM"]
]}

* * *

assayed system: Mast/stem cell growth factor receptor Kit (Homo sapiens)
Sequence (P10721 whole entry, the tested form may be a part): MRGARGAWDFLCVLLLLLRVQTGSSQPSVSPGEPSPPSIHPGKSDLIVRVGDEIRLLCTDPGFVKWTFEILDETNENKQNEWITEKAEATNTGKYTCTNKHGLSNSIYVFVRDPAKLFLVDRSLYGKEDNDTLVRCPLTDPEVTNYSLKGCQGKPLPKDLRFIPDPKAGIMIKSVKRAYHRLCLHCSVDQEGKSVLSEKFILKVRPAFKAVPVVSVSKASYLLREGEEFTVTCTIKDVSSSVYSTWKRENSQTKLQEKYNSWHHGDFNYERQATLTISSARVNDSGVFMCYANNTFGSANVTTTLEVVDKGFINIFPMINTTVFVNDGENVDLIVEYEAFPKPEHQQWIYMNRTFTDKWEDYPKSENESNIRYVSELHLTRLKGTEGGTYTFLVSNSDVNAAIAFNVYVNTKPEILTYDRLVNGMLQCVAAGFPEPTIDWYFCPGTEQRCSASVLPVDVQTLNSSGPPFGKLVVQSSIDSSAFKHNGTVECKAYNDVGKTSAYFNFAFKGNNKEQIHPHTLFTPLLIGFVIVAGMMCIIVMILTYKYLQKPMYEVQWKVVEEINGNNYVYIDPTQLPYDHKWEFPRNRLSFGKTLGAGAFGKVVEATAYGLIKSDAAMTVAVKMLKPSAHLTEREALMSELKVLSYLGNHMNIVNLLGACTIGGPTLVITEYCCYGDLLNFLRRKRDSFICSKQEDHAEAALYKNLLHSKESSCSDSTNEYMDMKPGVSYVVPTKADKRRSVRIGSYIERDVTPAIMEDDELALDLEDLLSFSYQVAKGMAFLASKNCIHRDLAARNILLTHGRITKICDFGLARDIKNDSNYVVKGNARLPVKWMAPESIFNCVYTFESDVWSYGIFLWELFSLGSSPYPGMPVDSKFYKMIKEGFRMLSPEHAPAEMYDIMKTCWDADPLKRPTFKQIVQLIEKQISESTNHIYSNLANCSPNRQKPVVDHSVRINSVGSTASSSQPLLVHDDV
method summary: Binding affinity to wild-type human partial length autoinhibited KIT (Y545 to D952 residues) expressed in mammalian expression system after 60 mins by Kinomescan method

{"columns": ["structure notation", "Kd [nM]"],
 "data": [
  ["CN1CCC(Nc2ccc(C(=O)Nc3cc(-c4cc(C#N)cs4)n[nH]3)cc2)CC1", 72]
]}

* * *

assayed system: Tyrosine-protein kinase ABL1 (Homo sapiens, UniProt P00519)
method summary: Inhibition of human ABL1 using EAIYAAPFAKKK as substrate preincubated for 20 mins followed by [gamma-33P]-ATP addition and measured after 120 mins by Hotspot assay
conditions used: read-out: IC50

{"columns": ["structure notation", "IC50, µM"],
 "data": [
  ["CN1CCC(Nc2ccc(C(=O)Nc3cc(-c4cc(C#N)cs4)n[nH]3)cc2)CC1", 0.931]
]}

* * *

assayed system: Tyrosine-protein kinase ABL1 (Homo sapiens, UniProt P00519, H396P)
method summary: Binding affinity to human non-phosphorylated ABL1 H396P mutant (S229 to K512 residues) expressed in mammalian expression system after 60 mins by Kinomescan method
value type: Kd (nM)

{"columns": ["structure notation", "value reported"],
 "data": [
  ["CN1CCC(Nc2ccc(C(=O)Nc3cc(-c4cc(C#N)cs4)n[nH]3)cc2)CC1", 280]
]}

* * *

assayed system: Macrophage colony-stimulating factor 1 receptor (Homo sapiens, UniProt P07333)
Sequence (P07333 whole entry, the tested form may be a part): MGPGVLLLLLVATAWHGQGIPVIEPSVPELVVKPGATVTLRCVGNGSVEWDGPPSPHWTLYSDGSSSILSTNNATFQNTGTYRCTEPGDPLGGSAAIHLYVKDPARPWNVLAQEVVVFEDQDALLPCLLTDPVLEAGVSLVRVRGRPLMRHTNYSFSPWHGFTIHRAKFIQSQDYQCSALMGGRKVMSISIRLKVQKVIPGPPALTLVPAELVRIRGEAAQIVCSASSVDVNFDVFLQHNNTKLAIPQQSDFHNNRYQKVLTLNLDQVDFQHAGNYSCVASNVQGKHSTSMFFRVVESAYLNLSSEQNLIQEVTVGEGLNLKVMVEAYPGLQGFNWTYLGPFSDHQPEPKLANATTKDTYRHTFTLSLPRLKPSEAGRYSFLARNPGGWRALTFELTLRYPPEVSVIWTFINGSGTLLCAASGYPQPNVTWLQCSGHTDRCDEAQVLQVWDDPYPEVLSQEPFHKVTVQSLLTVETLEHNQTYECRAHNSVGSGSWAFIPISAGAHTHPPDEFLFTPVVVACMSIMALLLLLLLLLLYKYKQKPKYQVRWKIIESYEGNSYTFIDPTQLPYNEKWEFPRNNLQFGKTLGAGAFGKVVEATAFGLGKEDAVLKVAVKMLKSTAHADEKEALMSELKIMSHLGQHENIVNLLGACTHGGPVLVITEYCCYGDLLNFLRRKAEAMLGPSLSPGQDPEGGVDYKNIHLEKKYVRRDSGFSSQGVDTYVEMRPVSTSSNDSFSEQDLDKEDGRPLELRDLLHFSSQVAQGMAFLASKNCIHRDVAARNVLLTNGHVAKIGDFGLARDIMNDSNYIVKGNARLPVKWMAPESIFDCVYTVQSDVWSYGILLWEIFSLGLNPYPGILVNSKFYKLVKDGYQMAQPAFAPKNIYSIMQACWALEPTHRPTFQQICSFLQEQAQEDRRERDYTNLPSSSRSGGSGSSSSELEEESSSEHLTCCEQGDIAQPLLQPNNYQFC
method summary: Binding affinity to wild-type human partial length CSF1R (I564 to S939 residues) expressed in bacterial expression system after 60 mins by Kinomescan method
pKd: −log10 of the molar value.

{"columns": ["structure notation", "pKd"],
 "data": [
  ["CN1CCC(Nc2ccc(C(=O)Nc3cc(-c4cc(C#N)cs4)n[nH]3)cc2)CC1", 7.33]
]}

* * *

assayed system: Tyrosine-protein kinase ABL1 (Homo sapiens, UniProt P00519, H396P)
method summary: Binding affinity to human phosphorylated ABL1 H396P mutant (S229 to K512 residues) expressed in mammalian expression system after 60 mins by Kinomescan method
pKd: −log10 of the molar value.

{"columns": ["structure notation", "assayed system", "pKd"],
 "data": [
  ["CN1CCC(Nc2ccc(C(=O)Nc3cc(-c4cc(C#N)cs4)n[nH]3)cc2)CC1", "Tyrosine-protein kinase ABL1 (Homo sapiens, UniProt P00519, H396P)", 6.41]
]}

* * *

assayed system: Serine/threonine-protein kinase Nek2 (Homo sapiens, UniProt P51955)
Sequence (P51955 whole entry): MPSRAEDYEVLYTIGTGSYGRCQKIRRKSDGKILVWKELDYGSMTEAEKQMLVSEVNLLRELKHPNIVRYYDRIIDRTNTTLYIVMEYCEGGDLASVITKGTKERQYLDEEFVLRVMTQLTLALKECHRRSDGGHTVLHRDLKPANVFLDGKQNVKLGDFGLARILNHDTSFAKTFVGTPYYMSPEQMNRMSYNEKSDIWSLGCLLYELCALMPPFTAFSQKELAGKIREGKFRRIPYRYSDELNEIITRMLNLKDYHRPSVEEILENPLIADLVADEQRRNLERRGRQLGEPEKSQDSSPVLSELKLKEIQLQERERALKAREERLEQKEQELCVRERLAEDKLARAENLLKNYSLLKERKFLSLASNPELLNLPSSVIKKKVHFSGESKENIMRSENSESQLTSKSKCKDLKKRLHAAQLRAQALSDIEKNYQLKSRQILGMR
pIC50: −log10 of the molar value.

{"columns": ["structure notation", "pIC50"],
 "data": [
  ["CN1CCC(Nc2ccc(C(=O)Nc3cc(-c4cc(C#N)cs4)n[nH]3)cc2)CC1", 5.68]
]}

* * *

assayed system: CDK6/cyclin D1 (Homo sapiens)
Sequence (P24385 whole entry): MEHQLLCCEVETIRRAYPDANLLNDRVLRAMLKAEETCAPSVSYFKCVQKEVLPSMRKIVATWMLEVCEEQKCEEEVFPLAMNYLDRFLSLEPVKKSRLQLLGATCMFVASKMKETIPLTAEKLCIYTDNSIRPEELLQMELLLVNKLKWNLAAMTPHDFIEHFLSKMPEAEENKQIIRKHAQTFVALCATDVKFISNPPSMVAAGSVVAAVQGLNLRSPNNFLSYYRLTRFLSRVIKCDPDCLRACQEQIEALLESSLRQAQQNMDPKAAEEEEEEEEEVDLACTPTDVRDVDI
Sequence (Q00534 whole entry): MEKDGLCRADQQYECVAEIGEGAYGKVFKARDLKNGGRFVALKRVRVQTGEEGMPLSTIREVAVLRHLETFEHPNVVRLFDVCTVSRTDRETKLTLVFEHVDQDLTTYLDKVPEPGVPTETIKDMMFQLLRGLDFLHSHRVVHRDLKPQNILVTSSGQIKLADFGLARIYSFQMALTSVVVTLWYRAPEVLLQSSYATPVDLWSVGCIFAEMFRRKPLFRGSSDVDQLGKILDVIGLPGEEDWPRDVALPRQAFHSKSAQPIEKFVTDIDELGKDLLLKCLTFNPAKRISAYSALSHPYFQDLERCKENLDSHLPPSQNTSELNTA
method summary: Inhibition of human CDK6/cyclin-D1 using RB protein as substrate preincubated for 20 mins followed by [gamma-33P]-ATP addition and measured after 120 mins by Hotspot assay
pIC50: −log10 of the molar value.

{"columns": ["structure notation", "pIC50"],
 "data": [
  ["CN1CCC(Nc2ccc(C(=O)Nc3cc(-c4cc(C#N)cs4)n[nH]3)cc2)CC1", 5.51]
]}

* * *

assayed system: Tyrosine-protein kinase ABL1 (Homo sapiens, UniProt P00519, F317L)
method summary: Binding affinity to human non-phosphorylated ABL1 F317L mutant (S229 to K512 residues) expressed in mammalian expression system after 60 mins by Kinomescan method
value type: Kd

{"columns": ["structure notation", "value reported"],
 "data": [
  ["CN1CCC(Nc2ccc(C(=O)Nc3cc(-c4cc(C#N)cs4)n[nH]3)cc2)CC1", "6.9 µM"]
]}

* * *

assayed system: ALK tyrosine kinase receptor (Homo sapiens, UniProt Q9UM73)
Sequence (Q9UM73 whole entry): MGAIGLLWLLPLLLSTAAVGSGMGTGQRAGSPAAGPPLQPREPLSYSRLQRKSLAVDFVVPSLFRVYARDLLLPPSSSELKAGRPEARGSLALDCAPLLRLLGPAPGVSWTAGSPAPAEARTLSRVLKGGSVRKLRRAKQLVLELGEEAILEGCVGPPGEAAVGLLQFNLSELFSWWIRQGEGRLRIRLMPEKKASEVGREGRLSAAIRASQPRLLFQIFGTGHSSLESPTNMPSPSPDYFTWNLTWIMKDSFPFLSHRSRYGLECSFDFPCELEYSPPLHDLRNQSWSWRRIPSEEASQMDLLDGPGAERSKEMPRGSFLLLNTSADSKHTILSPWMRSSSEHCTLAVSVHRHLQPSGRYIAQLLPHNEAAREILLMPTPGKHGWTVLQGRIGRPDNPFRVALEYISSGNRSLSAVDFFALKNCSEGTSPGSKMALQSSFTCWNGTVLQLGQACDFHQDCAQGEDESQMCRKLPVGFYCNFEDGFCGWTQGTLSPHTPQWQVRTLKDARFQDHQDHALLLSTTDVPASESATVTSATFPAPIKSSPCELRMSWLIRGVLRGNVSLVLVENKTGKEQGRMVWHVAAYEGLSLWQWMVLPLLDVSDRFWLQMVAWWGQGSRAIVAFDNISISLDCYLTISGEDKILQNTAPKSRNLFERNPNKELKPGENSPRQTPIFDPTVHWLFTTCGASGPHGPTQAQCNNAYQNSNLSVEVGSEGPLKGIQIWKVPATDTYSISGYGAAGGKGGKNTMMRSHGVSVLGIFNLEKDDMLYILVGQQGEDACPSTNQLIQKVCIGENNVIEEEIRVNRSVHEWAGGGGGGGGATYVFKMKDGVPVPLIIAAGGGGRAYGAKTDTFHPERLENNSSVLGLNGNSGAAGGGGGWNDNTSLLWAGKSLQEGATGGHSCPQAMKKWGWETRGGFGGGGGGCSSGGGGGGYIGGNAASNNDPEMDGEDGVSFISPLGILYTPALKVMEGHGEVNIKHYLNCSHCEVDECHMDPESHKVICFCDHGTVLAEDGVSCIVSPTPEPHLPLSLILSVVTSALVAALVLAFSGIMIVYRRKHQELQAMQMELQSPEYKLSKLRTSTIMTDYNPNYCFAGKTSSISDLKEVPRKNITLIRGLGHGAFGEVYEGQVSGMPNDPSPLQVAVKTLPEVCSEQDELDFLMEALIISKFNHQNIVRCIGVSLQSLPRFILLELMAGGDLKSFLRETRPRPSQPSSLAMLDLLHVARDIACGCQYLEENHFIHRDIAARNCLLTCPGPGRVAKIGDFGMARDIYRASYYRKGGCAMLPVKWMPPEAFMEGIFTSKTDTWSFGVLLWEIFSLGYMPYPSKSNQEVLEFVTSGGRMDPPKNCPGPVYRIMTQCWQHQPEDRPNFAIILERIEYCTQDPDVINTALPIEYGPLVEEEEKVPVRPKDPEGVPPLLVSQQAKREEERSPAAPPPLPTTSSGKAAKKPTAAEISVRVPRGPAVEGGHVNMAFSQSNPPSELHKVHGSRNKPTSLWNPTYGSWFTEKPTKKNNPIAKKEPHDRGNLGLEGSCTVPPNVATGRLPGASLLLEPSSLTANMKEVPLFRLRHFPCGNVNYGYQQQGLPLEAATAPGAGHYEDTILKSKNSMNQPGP
value type: IC50 (µM)

{"columns": ["structure notation", "value type", "value reported"],
 "data": [
  ["CN1CCC(Nc2ccc(C(=O)Nc3cc(-c4cc(C#N)cs4)n[nH]3)cc2)CC1", "IC50", 5.14]
]}

* * *

assayed system: Tyrosine-protein kinase ABL1 (Homo sapiens, UniProt P00519)
method summary: Binding affinity to wild-type human phosphorylated ABL1 (S229 to K512 residues) expressed in mammalian expression system after 60 mins by Kinomescan method

{"columns": ["structure notation", "unit name", "Kd"],
 "data": [
  ["CN1CCC(Nc2ccc(C(=O)Nc3cc(-c4cc(C#N)cs4)n[nH]3)cc2)CC1", "nM", 520]
]}
